Test system: NCI-H460 lung
experimentalProtocol: NCI-60 one-dose screen, 48 h
reportedConditions: 10 µM unless noted
The panel holds about 83,000 compounds, 20% with a hit somewhere; the sample as a whole holds those more often. The source made the active and inactive calls. The calls were made as follows: active = growth percent below 10; inactive = the rest.
API: response.call in 1 = active, -1 = inactive

Called result for CCOC(=O)c1c(C)[nH]c2ccc(O)cc12
-1

Called result for CC(C)(C)c1ccc(CCO)cc1
-1

Called result for CCC(C)(O)Cc1ccc(Cl)cc1 (configuration not stated)
-1

Called result for Oc1c(Cl)cc(Cl)cc1C(c1cc(Cl)cc(Cl)c1O)C(Cl)(Cl)Cl
1

Called result for O=C1C(=O)c2cc([N+](=O)[O-])ccc2-c2ccccc21
-1

Called result for CN(C)c1ccc(/C=C/c2ccnc3ccccc23)cc1
-1

Called result for CC(=O)OC1CC2CCC1(C)C2(C)C (configuration not stated)
-1

Called result for CN(C)CCN(C)CC(C)(C)C(=O)/C=C/c1ccc(Cl)c(Cl)c1
1

Called result for COc1cc(-c2ccc(-[n+]3nc(-c4ccc([N+](=O)[O-])cc4)nn3-c3ccc([N+](=O)[O-])cc3)c(OC)c2)ccc1-[n+]1nc(-c2ccc([N+](=O)[O-])cc2)nn1-c1ccc([N+](=O)[O-])cc1
1

Called result for CN(C)c1ccc(/C=C/c2nccc3ccccc23)cc1
-1

Called result for COc1cccc2c1C(=O)c1c(O)c3c(c(O)c1C2=O)C[C@@](O)(C(=O)CO)C[C@@H]3OC1CC(OC(C)=O)C(OC(C)=O)C(C)O1 (some centres not stated)
1

Called result for NC1=C(Br)C(=O)c2ncccc2C1=O
1

The measured values listed here are drawn from PubChem BioAssay (NCI).
